system: T1, recombinant Nitric oxide synthase interacting protein (NOSIP) (Homo sapiens (Human), UniProt Q9Y314 1-301)
T1 construct: It was synthesized by GenScript, cloned in pET22b, expressed in E. coli BL21 (DE3) and purified on Ni-NTA and by gel filtration; A His tag is implied but never described; also called rNOSIP; recombinant NOSIP
T1 sequence: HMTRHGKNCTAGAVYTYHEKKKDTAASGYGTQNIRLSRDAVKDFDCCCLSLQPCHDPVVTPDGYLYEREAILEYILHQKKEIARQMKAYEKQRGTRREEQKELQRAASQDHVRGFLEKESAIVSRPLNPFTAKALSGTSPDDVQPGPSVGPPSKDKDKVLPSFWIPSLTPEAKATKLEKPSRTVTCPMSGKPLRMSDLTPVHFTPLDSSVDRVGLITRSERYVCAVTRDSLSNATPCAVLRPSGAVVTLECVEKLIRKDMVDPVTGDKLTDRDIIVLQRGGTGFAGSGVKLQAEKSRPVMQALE
test_protocol: ITC, 10 µM iNOS peptide in the chamber, 150 µM rNOSIP in syringe, 25 C; ITC, 25 C; 10 µM iNOS peptide in chamber, 150 µM rNOSIP in syringe
pKd: −log10 of the molar value.

binder	pKd
NQYYGSFKEAKIEEHLAR (18-residue iNOS-derived peptide, synthesized commercially by China peptides; also called PP2; PP-2) [iNOS Peptide-2 (18 mer iNOS peptide)]	6.31
